# assay.text: Components of the Cytosolic LPS Sensing Pathway: Gene Identification via Genome-wide siRNA Screen
# protocol.conditions: RAW264.7 macrophages, IL-1a HTRF, actives lie on both sides, screened at 100 nM (by protocol), cells primed 5 h with Pam3CSK4 first
In all, about 53,000 sequences went through this assay and about 3,700 (7%) were called active.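 How the source made its calls: active means gene knockdowns whose robust z-score for IL-1 alpha signal is at least 2 or at most -2, so actives lie on both sides; inactive means the rest.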 This excerpt belongs to a sample that is enriched for actives.
Outcomes: TRUE = active, FALSE = inactive

• CCUUUUUGAGGAAUUUGGATT against Scaf8 = FALSE
• GGAGGUGUGGCAUCUGGAUTT against Gsn = FALSE
• GCCACAGGAUGCUAGCAAATT against Bex2 = FALSE
• GCACAGUUAGCAUUGCUCCTT against Hoxc10 = FALSE
• GCUUGACGCGAACUUACCATT against Endog = TRUE
• GGACUUCUCUGGGACUUCATT against Syt9 = FALSE

Entry source: PubChem BioAssay AID1508600
